# pKd listing for each entry below
Biological target: T1, Human BCMA (human, UniProt Q02223 1-54, limits assumed)
T1 construct: also called huBCMA; B-cell maturation antigen
T1 sequence (looked up): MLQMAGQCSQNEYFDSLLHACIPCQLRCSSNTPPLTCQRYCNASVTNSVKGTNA
Assay: SPR, IgG immobilised, human BCMA analyte
Quick note: pKd means taking -log10 of the concentration in moles per liter.

A02_Rd4_0.6nM_C10 (antibody, V domains shown, IgG) VH: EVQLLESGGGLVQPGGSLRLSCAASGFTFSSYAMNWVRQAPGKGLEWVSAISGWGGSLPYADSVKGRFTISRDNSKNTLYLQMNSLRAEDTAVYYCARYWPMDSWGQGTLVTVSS VL: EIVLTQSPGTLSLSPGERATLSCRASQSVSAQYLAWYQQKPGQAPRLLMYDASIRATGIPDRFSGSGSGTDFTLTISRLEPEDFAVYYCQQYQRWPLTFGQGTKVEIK	9.89

Continue with the binder presented below.
Which pKd is listed for C01_Rd4_6nM_C04 (antibody, V domains shown, IgG) VH: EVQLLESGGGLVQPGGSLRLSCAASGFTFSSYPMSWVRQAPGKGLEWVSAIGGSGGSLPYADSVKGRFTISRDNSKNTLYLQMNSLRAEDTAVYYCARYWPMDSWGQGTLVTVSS VL: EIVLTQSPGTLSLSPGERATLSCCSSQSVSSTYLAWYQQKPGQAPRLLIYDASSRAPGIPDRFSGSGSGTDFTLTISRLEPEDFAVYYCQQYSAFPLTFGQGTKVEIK ?
8.67
